Data provenance is ChEMBL document CHEMBL1159342.

- Tested on: J774.1
- EXPERIMENT: Inhibition of LPS-induced NO production in mouse J774.1 cells after 24 hrs
- Type: functional, cell-based
- CONDITION_DESCRIPTION: J774.1, 24 h
Record form. Attribute: IC50. Fill in for each entry.
One number for each entry, in µM.

Below, 2 compounds whose answers are already recorded.
Entry C=C[C@@]1(C)C[C@@H](O)[C@H]2[C@](O)(C1=O)[C@H](O)C[C@H]1C(C)(C)[C@H](OC(=O)c3ccccc3)[C@H](OC(C)=O)[C@H](OC(=O)c3ccccc3)[C@@]12C [ORTHOSIPHOL X] : reported IC50 = ? 6.4

Entry CNC(=N)NCCC[C@H](N)C(=O)O [TILARGININE] : reported IC50 = ? 26

New cases:
Entry C=C[C@@]1(C)C[C@@H](O)[C@H]2[C@](O)(C1=O)[C@H](OC(C)=O)C[C@H]1C(C)(C)[C@H](OC(=O)c3ccccc3)[C@H](OC(C)=O)[C@H](OC(=O)c3ccccc3)[C@@]12C [ORTHOSIPHOL O] : reported IC50 = ? 27.7

###

- Test system: J774.1
- EXPERIMENT: Inhibition of LPS-induced NO production in mouse J774.1 cells after 24 hrs
- Type: functional, cell-based
- CONDITION_DESCRIPTION: J774.1, 24 h
With a cut-off of 50 µM, any IC50 strictly below it is called Y; any IC50 meeting it or above is called N.

The following compounds have reported results that may help.
Is 50 µM strictly greater than the compound's reported IC50? compound: C=C[C@@]1(C)C[C@@H](O)[C@H]2[C@](O)(C1=O)[C@H](OC(C)=O)C[C@H]1C(C)(C)[C@H](OC(C)=O)[C@H](O)[C@H](OC(=O)c3ccccc3)[C@@]12C [ORTHOSIPHOL V] N

Is 50 µM strictly greater than the compound's reported IC50? compound: C=C[C@@]1(C)C[C@@H](OC(=O)c2ccccc2)[C@H]2[C@](O)(C1=O)[C@H](OC(C)=O)C[C@H]1C(C)(C)[C@H](OC(C)=O)[C@H](O)[C@H](OC(=O)c3ccccc3)[C@@]12C [ORTHOSIPHOL B] Y

Is 50 µM strictly greater than the compound's reported IC50? compound: C=C[C@@]1(C)C[C@@H](O)[C@H]2[C@](O)(C1=O)[C@H](O)C[C@H]1C(C)(C)[C@H](OC(C)=O)[C@H](OC(C)=O)[C@H](OC(=O)c3ccccc3)[C@@]12C [ORTHOSIPHOL G] N

Is 50 µM strictly greater than the compound's reported IC50? compound: C=C[C@@]1(C)C[C@@H](O)[C@H]2[C@](O)(C1=O)[C@H](OC(C)=O)C[C@H]1C(C)(C)[C@H](O)[C@H](OC(C)=O)[C@H](OC(=O)c3ccccc3)[C@@]12C [ORTHOSIPHOL W] N

Would you kindly look at the next entry?
Is 50 µM strictly greater than the compound's reported IC50? compound: C[C@@H]1C[C@H]2[C@@H]3CCC4=CC(=O)C=C[C@]4(C)[C@@]3(F)[C@@H](O)C[C@]2(C)[C@@]1(O)C(=O)CO [DEXAMETHASONE] N

###

- System: J774.1
- EXPERIMENT: Inhibition of LPS-induced NO production in mouse J774.1 cells after 24 hrs
- Type: functional, cell-based
- CONDITION_DESCRIPTION: J774.1, 24 h
QUANTITY_MEASURED: pIC50
One number for each entry, as −log10 of the molar value.

Below, 4 compounds whose answers are already recorded.
Entry C=C[C@@]1(C)C[C@@H](OC(=O)c2ccccc2)[C@@H]2[C@@]3(C)C=C(OC(C)=O)C(=O)C(C)(C)[C@@H]3C[C@@H](OC(C)=O)[C@@]2(O)C1=O : reported pIC50 = ? 4.84

Entry C=C[C@@]1(C)C[C@@H](OC(=O)c2ccccc2)[C@H]2[C@](O)(C1=O)[C@H](O)C[C@H]1C(C)(C)[C@H](OC(C)=O)[C@H](OC(C)=O)[C@H](OC(=O)c3ccccc3)[C@@]12C : reported pIC50 = ? 4.46

Entry C=C[C@@]1(C)CC(=O)[C@H]2[C@](O)(C1=O)[C@H](OC(C)=O)C[C@H]1C(C)(C)[C@H](OC(=O)c3ccccc3)[C@H](OC(C)=O)[C@H](OC(=O)c3ccccc3)[C@@]12C : reported pIC50 = ? 4.49

Entry C=C[C@@]1(C)C[C@@H](OC(=O)c2ccccc2)[C@H]2[C@](O)(C1=O)[C@H](O)C[C@H]1C(C)(C)[C@H](O)[C@H](OC(C)=O)[C@H](OC(=O)c3ccccc3)[C@@]12C : reported pIC50 = ? 4.44

Field: pIC50. Fill in for each record below.
1. C=C[C@]1(C)C(=O)[C@]2(O)[C@H](OC(C)=O)C[C@H]3C(C)(C)[C@H](OC(C)=O)[C@H](O)[C@H](OC(=O)c4ccccc4)[C@]3(C)[C@H]2[C@H](OC(=O)c2ccccc2)[C@H]1O
2. C=C[C@@]1(C)C[C@@H](O)[C@@H]2[C@@]3(C)C=C(OC(C)=O)C(=O)C(C)(C)[C@@H]3C[C@@H](OC(C)=O)[C@@]2(O)C1=O
3. C=C[C@@]1(C)C[C@@H](OC(=O)c2ccccc2)[C@@H]2[C@@](C)(CC(=O)O)[C@H](C(C)(C)C(=O)OC)C[C@@H](OC(C)=O)[C@@]2(O)C1=O
4. C=C[C@@]1(C)CC(=O)[C@H]2[C@](O)(C1=O)[C@H](OC(C)=O)C[C@H]1C(C)(C)[C@H](OC(C)=O)[C@H](OC(C)=O)[C@H](OC(=O)c3ccccc3)[C@@]12C
5. C=C[C@@]1(C)CC(=O)[C@H]2[C@](O)(C1=O)[C@H](O)C[C@H]1C(C)(C)[C@H](OC(C)=O)[C@H](OC(C)=O)[C@H](OC(=O)c3ccccc3)[C@@]12C
6. C=C[C@@]1(C)C[C@@H](O)[C@H]2[C@](O)(C1=O)[C@H](OC(C)=O)C[C@H]1C(C)(C)[C@H](OC(C)=O)[C@H](OC(C)=O)[C@H](OC(=O)c3ccccc3)[C@@]12C

4.45
4.42
3.90
4.18
3.99
4.22

Entry C=C[C@@]1(C)C[C@@H](OC(=O)c2ccccc2)[C@H]2[C@](O)(C1=O)[C@H](OC(C)=O)C[C@H]1C(C)(C)[C@H](O)[C@H](OC(C)=O)[C@H](OC(=O)c3ccccc3)[C@@]12C : reported pIC50 = ? 4.94
